Target: CYP2D6 (Homo sapiens)
Sequence (P10635 whole entry): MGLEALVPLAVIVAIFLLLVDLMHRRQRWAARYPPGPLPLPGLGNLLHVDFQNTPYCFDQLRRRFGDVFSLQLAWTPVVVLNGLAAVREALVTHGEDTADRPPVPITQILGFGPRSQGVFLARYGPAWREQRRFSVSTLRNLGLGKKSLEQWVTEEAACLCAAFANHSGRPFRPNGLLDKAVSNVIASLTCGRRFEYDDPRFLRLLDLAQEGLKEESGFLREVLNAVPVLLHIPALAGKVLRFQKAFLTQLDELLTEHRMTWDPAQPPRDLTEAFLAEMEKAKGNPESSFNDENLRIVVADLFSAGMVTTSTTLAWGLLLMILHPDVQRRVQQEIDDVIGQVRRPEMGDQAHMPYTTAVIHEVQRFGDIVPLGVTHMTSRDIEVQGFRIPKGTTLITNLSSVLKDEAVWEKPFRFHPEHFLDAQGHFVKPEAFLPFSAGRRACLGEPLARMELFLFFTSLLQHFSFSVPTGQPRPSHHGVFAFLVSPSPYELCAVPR
Assay: Inhibition of human CYP2D6 assessed as residual activity using quinidine as […] at 10 uM relative to control
Assay type: ADME
Conditions: probe quinidine, read-out: Activity
Provide the reported activity at 10 µM of each item.
Numbers only, in %.

Completed entries (count: 2):
structure	testedSystem	obsValue
O=C1c2[nH]nc(NS(=O)(=O)c3cccc4ccccc34)c2CCN1CC1CCNCC1	CYP2D6 (Homo sapiens)	97.2
O=C1c2[nH]nc(NS(=O)(=O)c3cccc4ccccc34)c2CCN1C1CCNCC1	CYP2D6 (Homo sapiens)	95.1

Give the reported value of activity at 10 µM for this record: COc1ccc(N2CCc3c(NS(=O)(=O)c4cccc(F)c4)n[nH]c3C2=O)cc1
87.8
